Recorded pEC50 values for a group of molecules are listed next.
- ASSAYED_TARGET: LXRβ (Homo sapiens)
- Construct: Co-transfection expression plasmids, comprising full-length LXRα (pCMX-h LXRα or LXRβ (pCMX-hLXRβ))
- Sequence (P55055 1-460): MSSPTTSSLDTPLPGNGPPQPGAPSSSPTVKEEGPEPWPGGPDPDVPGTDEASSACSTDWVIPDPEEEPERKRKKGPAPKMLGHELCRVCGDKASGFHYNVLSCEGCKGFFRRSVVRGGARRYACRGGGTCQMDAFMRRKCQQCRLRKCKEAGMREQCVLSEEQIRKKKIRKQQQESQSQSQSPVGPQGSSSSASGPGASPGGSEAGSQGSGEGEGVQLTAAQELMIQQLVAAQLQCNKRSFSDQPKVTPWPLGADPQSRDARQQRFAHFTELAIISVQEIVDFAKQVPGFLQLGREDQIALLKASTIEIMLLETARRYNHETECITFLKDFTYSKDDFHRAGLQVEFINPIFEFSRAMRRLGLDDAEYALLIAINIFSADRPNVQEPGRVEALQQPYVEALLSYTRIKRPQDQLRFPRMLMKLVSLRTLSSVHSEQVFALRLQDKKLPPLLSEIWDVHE
- Sequence (P19793 1-462 partner): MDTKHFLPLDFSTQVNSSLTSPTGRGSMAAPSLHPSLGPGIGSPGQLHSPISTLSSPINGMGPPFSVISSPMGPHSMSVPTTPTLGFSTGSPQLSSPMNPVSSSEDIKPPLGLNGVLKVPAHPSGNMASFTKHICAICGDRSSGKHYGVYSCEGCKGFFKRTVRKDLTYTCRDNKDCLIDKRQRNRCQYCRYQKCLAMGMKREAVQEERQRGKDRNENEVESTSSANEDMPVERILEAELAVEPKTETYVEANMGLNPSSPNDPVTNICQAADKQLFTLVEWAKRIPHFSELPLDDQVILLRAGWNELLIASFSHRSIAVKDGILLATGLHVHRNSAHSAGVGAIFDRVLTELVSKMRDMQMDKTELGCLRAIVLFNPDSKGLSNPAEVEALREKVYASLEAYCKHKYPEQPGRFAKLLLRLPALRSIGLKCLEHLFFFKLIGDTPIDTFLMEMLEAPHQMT
- METHOD_NOTES: LXR/LXRE co-transfection assay (luciferase reporter) in CV-1 cells, LXRβ
- CONDITIONS: CV-1 cells transfected with pCMX-hLXRβ and LXREx1-Tk-Luciferase, 20 hours incubation, read-out: LXRbeta agonism EC50
Quick note: pEC50 means taking -log10 of the concentration in moles per liter.

Here is how some molecules turned out for pEC50.
{"MOLECULAR_STRING": "Cc1nc(-c2ccc(OC(F)F)c(F)c2)c(-c2cc(-c3cc(F)c(CO)c(S(C)(=O)=O)c3)ccc2-c2cc(C(F)(F)C(N)=O)nn2C)o1", "ASSAYED_TARGET": "LXRβ (Homo sapiens)", "VALUE_OBSERVED": 7.33}
{"MOLECULAR_STRING": "Cn1nc(C(F)(F)C(N)=O)cc1-c1ccc(-c2cccc(S(C)(=O)=O)c2)cc1-n1nncc1-c1ccc(OC(F)(F)F)cc1", "ASSAYED_TARGET": "LXRβ (Homo sapiens)", "VALUE_OBSERVED": 5.80}
{"MOLECULAR_STRING": "Cc1nc(-c2cc(-c3cc(F)c(CO)c(S(C)(=O)=O)c3)ccc2-n2nc(C(F)(F)F)cc2Cl)c(-c2ccc(OC(F)(F)F)cc2)o1", "ASSAYED_TARGET": "LXRβ (Homo sapiens)", "VALUE_OBSERVED": 7.00}
{"MOLECULAR_STRING": "Cc1nc(-c2ccc(OC(F)(F)F)cc2)c(-c2cc(-c3cccc(S(C)(=O)=O)c3)ccc2-n2ccc(C(C)(F)F)n2)o1", "ASSAYED_TARGET": "LXRβ (Homo sapiens)", "VALUE_OBSERVED": 7.28}
{"MOLECULAR_STRING": "CNS(=O)(=O)c1cccc(-c2ccc(-n3cc(Cl)c(C(F)(F)F)n3)c(-c3oc(C)nc3-c3cnc(OC)nc3)c2)c1", "ASSAYED_TARGET": "LXRβ (Homo sapiens)", "VALUE_OBSERVED": 6.77}

Turning to the following molecule.
Cc1cc(C(F)(F)F)nn1-c1ccc(-c2cccc(S(C)(=O)=O)c2)cc1-c1ocnc1-c1ccc(OC(F)(F)F)cc1 on LXRβ (Homo sapiens) gives pEC50 = 7.04

* * *

- ASSAYED_TARGET: LXRβ (Homo sapiens)
- Construct: Co-transfection expression plasmids, comprising full-length LXRα (pCMX-h LXRα or LXRβ (pCMX-hLXRβ))
- METHOD_NOTES: LXR/LXRE co-transfection assay (luciferase reporter) in CV-1 cells, LXRβ
- CONDITIONS: CV-1 cells transfected with pCMX-hLXRβ and LXREx1-Tk-Luciferase, 20 hours incubation, read-out: LXRbeta agonism EC50
ASSAY_ENDPOINT: pEC50
Quick note: pEC50 means taking -log10 of the concentration in moles per liter.

Here is how some compounds turned out for pEC50.
{"COMPOUND": "Cc1nc(-c2ccc(Cl)cc2Cl)c(-c2cc(-c3cccc(S(C)(=O)=O)c3)ccc2-n2ccc(C(F)(F)F)n2)o1 [Example 337]", "ASSAY_ENDPOINT": "pEC50", "VALUE_OBSERVED": 6.75}
{"COMPOUND": "Cc1nc(-c2ccc3c(c2)OC(F)(F)O3)c(-c2cc(-c3cc(F)c(CO)c(S(C)(=O)=O)c3)ccc2-c2cc(C(F)(F)C(=O)N3CCCC3)nn2C)o1 [Example 83]", "ASSAY_ENDPOINT": "pEC50", "VALUE_OBSERVED": 6.30}
{"COMPOUND": "Cc1nc(-c2ccc(OC(F)(F)F)cc2)c(-c2cc(-c3cc(F)c(CO)c(S(C)(=O)=O)c3)ccc2-n2cc(Cl)c(C(C)(C)O)n2)o1 [Example 443]", "ASSAY_ENDPOINT": "pEC50", "VALUE_OBSERVED": 7.66}
{"COMPOUND": "Cc1nc(-c2ccc(OC(F)(F)F)cc2)c(-c2cc(-c3cc(F)c(CO)c(S(C)(=O)=O)c3)ccc2-n2ccc(COC(N)=O)n2)o1 [Example 375]", "ASSAY_ENDPOINT": "pEC50", "VALUE_OBSERVED": 6.70}

Cc1cc(C(C)(F)F)n(-c2ccc(-c3cccc(S(C)(=O)=O)c3)cc2-n2nncc2-c2ccc(OC(F)(F)F)cc2)n1 [Example 306] yielded pEC50 of 6.69

Cc1nc(-c2ccc(OC(F)F)cc2)c(-c2cc(-c3ccc(CO)c(S(C)(=O)=O)c3)ccc2-n2nc(C(F)(F)F)cc2C)o1 [Example 326] yielded pEC50 of 7.82

* * *

- ASSAYED_TARGET: LXRβ (Homo sapiens)
- Construct: Co-transfection expression plasmids, comprising full-length LXRα (pCMX-h LXRα or LXRβ (pCMX-hLXRβ))
- METHOD_NOTES: LXR/LXRE co-transfection assay (luciferase reporter) in CV-1 cells, LXRβ
- CONDITIONS: CV-1 cells transfected with pCMX-hLXRβ and LXREx1-Tk-Luciferase, 20 hours incubation, read-out: LXRbeta agonism EC50
The label is MET for EC50 below 20 nM and NOT MET for EC50 equal to or exceeding 20 nM.

{"MOLECULAR_STRING": "Cc1nc(-c2cc(-c3cc(F)c(CO)c(S(C)(=O)=O)c3)ccc2-n2nc(C(F)(F)F)cc2C)c(-c2ccc3c(c2)OC(F)(F)O3)o1", "ASSAYED_TARGET": "LXRβ (Homo sapiens)", "ANSWER_LABEL": "MET"}
{"MOLECULAR_STRING": "Cc1nc(-c2cc(-c3cc(F)c(CO)c(S(C)(=O)=O)c3)ccc2-n2nc(C(F)(F)F)cc2Cl)c(-c2ccc3c(c2)OC(F)(F)O3)o1", "ASSAYED_TARGET": "LXRβ (Homo sapiens)", "ANSWER_LABEL": "MET"}

Q) EC50 under 20 nM? Item: CN(C)C(=O)c1cc(-c2ccc(-c3cccc(S(C)(=O)=O)c3)cc2-n2nncc2-c2ccc(OC(F)(F)F)cc2)n(C)n1
A) NOT MET

Q) EC50 under 20 nM? Item: Cc1nc(-c2ccc(OC(F)(F)F)cc2)c(-c2cc(-c3cccc(S(C)(=O)=O)c3)ccc2-n2cc(C)c(C(F)(F)F)n2)o1
A) NOT MET

Q) EC50 under 20 nM? Item: Cc1nc(-c2ccc(OC(F)(F)F)cc2)c(-c2cc(-c3cc(F)c(CO)c(S(C)(=O)=O)c3)ccc2-n2ccc(C(N)=O)n2)o1
A) NOT MET

Q) EC50 under 20 nM? Item: Cc1c(C(C)(F)F)nn(C)c1-c1ccc(-c2cc(F)c(CO)c(S(C)(=O)=O)c2)cc1-n1nncc1-c1ccc(OC(F)(F)F)cc1
A) MET

The reported numbers originate from patent US9751869B2.
